// IC50 lookup, one value per entry
target: 1,4-dihydroxy-2-naphthoyl-CoA synthase (Mycobacterium tuberculosis)
Sequence (P9WNP5 whole entry): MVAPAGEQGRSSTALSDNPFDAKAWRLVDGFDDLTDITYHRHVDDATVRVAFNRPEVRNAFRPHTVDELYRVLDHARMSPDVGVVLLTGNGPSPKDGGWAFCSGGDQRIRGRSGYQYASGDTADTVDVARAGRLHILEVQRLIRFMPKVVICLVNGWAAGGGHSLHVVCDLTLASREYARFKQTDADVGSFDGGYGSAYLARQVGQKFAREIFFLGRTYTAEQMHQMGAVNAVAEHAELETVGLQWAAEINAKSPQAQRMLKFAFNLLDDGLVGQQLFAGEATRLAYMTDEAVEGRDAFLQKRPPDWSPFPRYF
assay-procedure: Inhibition of Mycobacterium tuberculosis MenB expressed in Escherichia coli BL21 (DE3) assessed as formation of DHNA-CoA from OSB-CoA by enzyme coupled-assay in presence of Escherichia coli MenE

[[record]]
molecule = "C[C@H](NC(CC(=O)c1ccc(F)cc1)C(=O)O)c1ccccc1 (some centres not stated)"
result = "> 120 µM"

[[record]]
molecule = "C[C@H](NC(CC(=O)c1ccccc1C(F)(F)F)C(=O)O)c1ccccc1 (some centres not stated)"
result = "> 120 µM"

[[record]]
molecule = "C[C@H](NC(CC(=O)c1ccccc1Cl)C(=O)O)c1ccccc1 (some centres not stated)"
result = "> 120 µM"


Then there is this molecule:
Reading of IC50 for COc1ccccc1C(=O)CC(N[C@@H](C)c1ccccc1)C(=O)O (some centres not stated) with 1,4-dihydroxy-2-naphthoyl-CoA synthase (Mycobacterium tuberculosis): > 120 µM
